# assay notes: Drug concentration in FVB.129P2 mouse plasma at 20 mg/kg,sc and measured upto 18 hrs by LC-MS/MS analysis
# Assay type: ADME, organism-based
readout: concentration at 18 h

In [3]: df
Out[3]:
                               given_smiles                readout  assay_result
0  CCn1c(=O)c(-c2ccc(Cl)cc2Cl)cc2cnc(Nc3ccc(N4CCNCC4)c(F)c3)nc21  concentration at 18 h   > 100 ng/mL

* * *

# assay notes: Tmax in FVB.129P2 mouse plasma at 20 mg/kg,sc by LC-MS/MS analysis
# Format: ADME, organism-based
readout: Tmax (min)

>>> df
                               given_smiles  assay_result
0  CCn1c(=O)c(-c2ccc(Cl)cc2Cl)cc2cnc(Nc3ccc(N4CCNCC4)c(F)c3)nc21            15
